target: Cannabinoid receptor 1 (Rattus norvegicus, UniProt P20272); format: cell membranes, Brain, Brain membranes
Sequence (P20272 whole entry): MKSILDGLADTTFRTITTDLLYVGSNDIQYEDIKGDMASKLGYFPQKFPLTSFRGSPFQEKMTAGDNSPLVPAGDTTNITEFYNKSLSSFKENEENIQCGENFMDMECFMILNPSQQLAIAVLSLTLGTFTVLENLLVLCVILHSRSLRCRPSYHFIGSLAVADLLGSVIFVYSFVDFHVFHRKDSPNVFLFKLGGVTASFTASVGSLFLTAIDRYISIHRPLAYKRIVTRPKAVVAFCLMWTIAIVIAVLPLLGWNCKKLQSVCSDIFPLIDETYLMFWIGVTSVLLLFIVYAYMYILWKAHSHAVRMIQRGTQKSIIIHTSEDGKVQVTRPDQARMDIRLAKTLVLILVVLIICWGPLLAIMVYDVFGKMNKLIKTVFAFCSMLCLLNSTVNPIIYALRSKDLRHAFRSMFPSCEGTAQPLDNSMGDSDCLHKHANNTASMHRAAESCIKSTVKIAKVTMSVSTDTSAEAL
Description: Inhibition of [3H]CP-55940 binding to cannabinoid receptor 1 in rat brain membranes.
pKi: −log10 of the molar value.
Label TRUE when pKi >= 8; otherwise FALSE.

[
  {
    "smiles-data": "CCCCCc1ccc(-c2c(C)c(C(=O)NN3CCCCC3)nn2-c2ccc(Cl)cc2Cl)cc1",
    "label-value": "TRUE"
  },
  {
    "smiles-data": "CCCCCn1nc(C(=O)NN2CCCCC2)c(C)c1-c1ccccc1",
    "label-value": "FALSE"
  },
  {
    "smiles-data": "CCCCn1nc(C(=O)NN2CCCCC2)c(C)c1-c1ccccc1",
    "label-value": "FALSE"
  },
  {
    "smiles-data": "Cc1c(C(=O)NN2CCOCC2)nn(-c2ccc(Cl)cc2Cl)c1-c1ccc(Br)cc1",
    "label-value": "FALSE"
  }
]
